# Target Or System: human OX2R (Homo sapiens, UniProt O43614)
# Sequence (O43614 whole entry): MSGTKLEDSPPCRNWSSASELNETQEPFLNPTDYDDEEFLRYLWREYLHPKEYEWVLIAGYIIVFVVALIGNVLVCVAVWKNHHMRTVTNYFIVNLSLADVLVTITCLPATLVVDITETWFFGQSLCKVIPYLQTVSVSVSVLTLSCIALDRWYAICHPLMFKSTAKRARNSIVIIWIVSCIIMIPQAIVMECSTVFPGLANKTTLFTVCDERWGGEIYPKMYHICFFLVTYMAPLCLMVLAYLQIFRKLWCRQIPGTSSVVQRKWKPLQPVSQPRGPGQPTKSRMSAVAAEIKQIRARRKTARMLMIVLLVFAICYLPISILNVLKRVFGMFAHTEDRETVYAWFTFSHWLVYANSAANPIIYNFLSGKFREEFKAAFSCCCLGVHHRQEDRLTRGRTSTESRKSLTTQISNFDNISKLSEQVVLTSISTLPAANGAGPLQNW
# Test Description: IPOne (IP-1) orexin receptor agonist assay in CHO cells expressing human OX2R
# Reported Conditions: IPOne assay, CHO cells expressing human OX2R, 2 hours incubation; read-out: hoX2R_IP IC50
# IC50 per entry
Assay Endpoint: IC50

Molecule: COC(=O)N1[C@H](C)C[C@H](NS(=O)(=O)N(C)C)[C@@H]1COC1CCC2(c3cnccn3)CC2C1 (stereo partly shown) [Example 10]
Target Or System: human OX2R (Homo sapiens, UniProt O43614)
Measurement: 323 nM

Molecule: COC(=O)N1[C@H](C)C[C@H](NS(=O)(=O)N(C)C)[C@@H]1COC1CCC2(c3ncccn3)C(C1)C2(F)F (stereo partly shown) [Example 7]
Target Or System: human OX2R (Homo sapiens, UniProt O43614)
Measurement: 9390 nM

Molecule: CCS(=O)(=O)N[C@H]1C[C@@H](C(F)F)N(C(=O)OC)[C@H]1COC1CCC2(c3ncc(F)cn3)CC2C1 (stereo partly shown) [Example 117]
Target Or System: human OX2R (Homo sapiens, UniProt O43614)
Measurement: 1.2 nM

Molecule: COC(=O)N1[C@H](C)C[C@H](NS(=O)(=O)C(C)C)[C@@H]1CO[C@H]1CC[C@@]2(c3ncc(F)cn3)C[C@H]2C1 [Example 38]
Target Or System: human OX2R (Homo sapiens, UniProt O43614)
Measurement: 0.9 nM

Molecule: C[C@@H]1C[C@H](NS(C)(=O)=O)[C@H](CO[C@H]2CC[C@@]3(c4ncc(F)cn4)C[C@H]3C2)N1C(=O)OCC(F)F [Example 66]
Target Or System: human OX2R (Homo sapiens, UniProt O43614)
Measurement: 0.6 nM

Molecule: CCS(=O)(=O)N[C@H]1CCCN(C(=O)OC(C)C)[C@H]1COC1CC[C@@]2(c3ncc(F)cn3)CC2C1 (stereo partly shown) [Example 126]
Target Or System: human OX2R (Homo sapiens, UniProt O43614)
Measurement: 3.3 nM

Molecule: COC(=O)N1[C@H](C)C[C@H](NS(C)(=O)=O)[C@@H]1COC1CCC2(c3ncc(Cl)c(C(F)(F)F)n3)CC2C1 (stereo partly shown) [Example 72]
Target Or System: human OX2R (Homo sapiens, UniProt O43614)
Measurement: 187 nM

Molecule: COC(=O)N1[C@H](C)C[C@H](NS(=O)(=O)N(C)C)[C@@H]1COC1CCC2(c3ccccn3)CC2C1 (stereo partly shown) [Example 9]
Target Or System: human OX2R (Homo sapiens, UniProt O43614)
Measurement: 28.8 nM

Molecule: CC(C)OC(=O)N1[C@H](C)C[C@H](NS(=O)(=O)C(F)F)[C@@H]1COC1CCC2(c3ncc(Cl)cn3)CC2C1 (stereo partly shown) [Example 82]
Target Or System: human OX2R (Homo sapiens, UniProt O43614)
Measurement: 10.8 nM

Molecule: CC(C)OC(=O)N1[C@H](C)C[C@H](NS(C)(=O)=O)[C@@H]1COC1CCC2(c3ncc(Cl)cn3)CC2C1 (stereo partly shown) [Example 154]
Target Or System: human OX2R (Homo sapiens, UniProt O43614)
Measurement: 16.9 nM

Molecule: COC(=O)N1[C@H](C)C[C@H](NS(=O)(=O)CCl)[C@@H]1CO[C@H]1CC[C@@]2(c3ncc(F)cn3)C[C@H]2C1 [Example 37]
Target Or System: human OX2R (Homo sapiens, UniProt O43614)
Measurement: 2.1 nM

Molecule: C[C@@H]1C[C@H](NS(C)(=O)=O)[C@H](CO[C@H]2CC[C@@]3(c4ncc(F)cn4)C[C@H]3C2)N1C(=O)OCC(F)C1CCC1 (stereo partly shown) [Example 54]
Target Or System: human OX2R (Homo sapiens, UniProt O43614)
Measurement: 6 nM

Molecule: COC(=O)N1CC[C@H](NS(C)(=O)=O)[C@@H]1COC1CCC2(c3ncccn3)CC2C1 (mixture of isomers) [Example 21]
Target Or System: human OX2R (Homo sapiens, UniProt O43614)
Measurement: 1620 nM
